Test system: SW-620 colon
Test: NCI-60 one-dose screen, 48 h
Conditions: 10 µM unless noted
The panel holds about 83,000 compounds, 20% with a hit somewhere; the sample as a whole holds those more often. Active and inactive are the calls of the source. The calls were made as follows: active = growth percent below 10; inactive = the rest.
Hi there, use one of these labels in your reply, thanks! 1 (active), 0 (inactive)

Prompt line: Outcome? COc1cc(C2CC(c3ccc(Nc4ccnc5cc(Cl)ccc45)cc3)=NN2C=O)cc(OC)c1OC (stereo unspecified)
Response line: 0

Prompt line: Could you check what this test reported for COc1cc(C(=O)/C=C/c2c(C(F)(F)F)nc3sccn23)cc(OC)c1OC ?
Response line: 1

Prompt line: I'd appreciate the recorded outcome for COC(=O)c1c2c(c[n+]([O-])c1C)C(=O)C=CC2=O from this test.
Response line: 1

Prompt line: Could you kindly confirm the outcome this assay logged for COc1ccc2c(c1)O/C(=C/c1ccc(OCC(=O)c3ccccc3)cc1)C2=O ?
Response line: 0

Prompt line: // outcome(item) with item = COC(=O)c1ccc(C2Nc3ccc(S(=O)(=O)Nc4ccc(C)c(C)c4)cc3C3OCCC23)cc1 (stereo unspecified)
Response line: 0

Prompt line: State the result this test recorded for O=C(CSc1nnc(-c2ccc(NC(=O)c3cccnc3)cc2)o1)N[C@@H](Cc1ccc(O)cc1)C(=O)O .
Response line: 0

* * *

What growth was measured for each of the following?
System: OVCAR-5 ovarian
Assay: NCI-60 one-dose screen, 48 h (100 = growth as untreated, 0 = no growth, -100 = all killed)
Details: 10 µM unless noted
Experimental: Growth inhibition of the OVCAR-5 human tumor cell line is measured as a screen for anti-cancer activity. Cells are grown in 96 well plates and exposed to the test compound for 48 hours. Compounds are tested at a single concentration, which is 10^-5 M for most compounds. The reported endpoint is percent growth (GI% or GIPRCNT), where numbers from 0 - 100% represent growth inhibition, and numbers from -100% - 0 represent cell death. For example, a value of 40 represents 60% growth inhibition. […]
This is part of a sample that, as a whole, favours compounds with a hit. Of some 83,000 tested, about 20% had one in any assay.
The answer is to be given in %; state only the numeric part.

Prompt line: So what does the record say about growth for N=C1C(c2nc(-c3ccc(Br)cc3)cs2)=C(O)CN1CC1CCCO1 (centres undefined) ?
Response line: 89.2

Prompt line: Name the reported growth value associated with the compound Cc1c(C(=O)NC(Cc2ccccc2)C(O)C(=O)NCc2ccc(F)cc2)[nH]c2ccccc2c1=O (centres undefined)
Response line: 91

Prompt line: growth for CC(C)Sc1nc(NNC(N)=S)c(C#N)c(-c2ccc(F)cc2)n1 ?
Response line: 88.3

Prompt line: I am curious: what growth value has been reported for NS(=O)(=O)c1ccc(-n2nc(C(=O)N/N=C\c3ccc(F)cc3)cc2-c2ccc(Cl)cc2)cc1 ?
Response line: 103

Prompt line: Report growth for COc1ccc(-c2nc(SCCC(C)C)nc(N/N=C\c3ccccc3O)c2C#N)cc1 please.
Response line: 99.7

Prompt line: Suppose we examine the compound c1ccc2cc3nc4cc5ccccc5cc4nc3cc2c1 ; what growth value has been reported?
Response line: 91.6

Prompt line: What measured growth goes with O=C(NC(Cc1nnc2n(Cc3ccccc3)c(=O)c3c4c(sc3n12)CCCC4)c1ccc(Cl)cc1)c1ccccc1 (centres undefined) ?
Response line: 104

Prompt line: Form field: reported growth of N#Cc1c(N2CCNCC2)nc2sc3cc(Cl)c(Cl)cc3n2c1=N
Response line: 131

Prompt line: Which growth reading was recorded for the compound CN1CCN(CC(=O)Nc2nc(-c3cccc(NS(=O)(=O)c4cccc5c(N(C)C)cccc45)c3)cs2)CC1 ?
Response line: 86.6

Prompt line: So what does the record say about growth for CN(C)CC1C(=O)O[C@H]2[C@H]1CC/C(COC(=O)c1cc3ccccc3[nH]1)=C\CC[C@@]1(C)O[C@@H]21 (some centres undefined) ?
Response line: -5.25

Prompt line: # growth lookup, item Cc1cccc(Cc2cnc(NC(=O)c3ccc4nnsc4c3)s2)c1
Response line: 84.4

Prompt line: # lookup: growth of NC(=O)c1ccc[n+](Cc2ccc(Cl)cc2Cl)c1
Response line: 96.9

Prompt line: Need growth, item CCCc1cc2c(=O)c(C(=O)OC)c[nH]c2cc1N(CC)CC
Response line: 88.8

Prompt line: What value of measured growth is listed for COc1cccc(-c2nc3sccn3c2-c2ccnc(NCCNS(=O)(=O)c3cccc(Cl)c3)c2)c1 ?
Response line: 89.6
